Test system: ATP;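 further: ATP exposure 15 min at 22 °C before imaging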
Assay: switch fluorescence ratio, 500 uM ATP over buffer (Cy3 cluster intensity, sum of 5 cycles each) (fold (ratio)); higher = stronger signal-on switching upon ATP binding; sequences stand for … in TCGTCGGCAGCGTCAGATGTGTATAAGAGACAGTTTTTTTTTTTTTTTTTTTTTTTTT…TC
Conditions: aptamer strand: ATP DNA aptamer (quencher-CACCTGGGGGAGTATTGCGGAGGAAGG + anchor), 100 nM annealed; ATP concentration: 500 uM

sequence.input: AAGTTTTTTG
switch fluorescence ratio: 0.989

sequence.input: TACAGTGAAA
switch fluorescence ratio: 1.05

sequence.input: AGGAATTACG
switch fluorescence ratio: 1.05

sequence.input: GCAAAAGGGA
switch fluorescence ratio: 1.01

sequence.input: GATATATTCG
switch fluorescence ratio: 1

sequence.input: TCATTGGTT
switch fluorescence ratio: 0.985

sequence.input: TGGTCTAATG
switch fluorescence ratio: 0.979

sequence.input: GAGAGACAGG
switch fluorescence ratio: 1.01

sequence.input: TCTAGGAGGG
switch fluorescence ratio: 0.998

sequence.input: GCTAGGTGAA
switch fluorescence ratio: 1.21

sequence.input: TAAAAGGACT
switch fluorescence ratio: 1.03

sequence.input: CGGGGGCGAA
switch fluorescence ratio: 0.996

sequence.input: GGTTTAAATG
switch fluorescence ratio: 1.03

sequence.input: ATCGGATTGT
switch fluorescence ratio: 1.01

sequence.input: AGTAATTGCG
switch fluorescence ratio: 0.982

sequence.input: AAGGGGGCTA
switch fluorescence ratio: 0.974

sequence.input: TGCTAATAGG
switch fluorescence ratio: 1.01

sequence.input: CAAAGTTGGT
switch fluorescence ratio: 0.994

sequence.input: TTTGAAGCCG
switch fluorescence ratio: 0.989

sequence.input: GGATGCTCGG
switch fluorescence ratio: 0.966

sequence.input: GGCACTATCC
switch fluorescence ratio: 1.09

* * *

Each item that follows carries a reported switch fluorescence ratio.
Tested on: ATP;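 further: ATP exposure 15 min at 22 °C before imaging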
Experiment: switch fluorescence ratio, 500 uM ATP over buffer (Cy3 cluster intensity, sum of 5 cycles each) (fold (ratio)); higher = stronger signal-on switching upon ATP binding; sequences stand for … in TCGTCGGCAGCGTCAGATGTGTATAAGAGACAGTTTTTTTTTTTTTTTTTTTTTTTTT…TC
Conditions: aptamer strand: ATP DNA aptamer (quencher-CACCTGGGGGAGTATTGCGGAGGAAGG + anchor), 100 nM annealed; ATP concentration: 500 uM

sequence.input: ATAAGGAGTT
study.target: ATP;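 further: ATP exposure 15 min at 22 °C before imaging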
switch fluorescence ratio: 1.01
//
sequence.input: TTATGTGGGT
study.target: ATP;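 further: ATP exposure 15 min at 22 °C before imaging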
switch fluorescence ratio: 0.989
//
sequence.input: GCCCAATAAG
study.target: ATP;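 further: ATP exposure 15 min at 22 °C before imaging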
switch fluorescence ratio: 1.03
//
sequence.input: AATCGAGGAG
study.target: ATP;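 further: ATP exposure 15 min at 22 °C before imaging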
switch fluorescence ratio: 0.957
//
sequence.input: AAAGAGTAAT
study.target: ATP;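 further: ATP exposure 15 min at 22 °C before imaging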
switch fluorescence ratio: 1.01
//
sequence.input: TGATTCAGGT
study.target: ATP;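 further: ATP exposure 15 min at 22 °C before imaging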
switch fluorescence ratio: 1
//
sequence.input: GAGTACGCTA
study.target: ATP;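 further: ATP exposure 15 min at 22 °C before imaging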
switch fluorescence ratio: 3.07
//
sequence.input: TTTTTGTCAT
study.target: ATP;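 further: ATP exposure 15 min at 22 °C before imaging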
switch fluorescence ratio: 0.991
//
sequence.input: ATATGGTGCT
study.target: ATP;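 further: ATP exposure 15 min at 22 °C before imaging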
switch fluorescence ratio: 1
//
sequence.input: CGAACTTTTG
study.target: ATP;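 further: ATP exposure 15 min at 22 °C before imaging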
switch fluorescence ratio: 0.984
//
sequence.input: TATTTTACTA
study.target: ATP;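 further: ATP exposure 15 min at 22 °C before imaging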
switch fluorescence ratio: 1.01
//
sequence.input: ACTTAGTCA
study.target: ATP;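 further: ATP exposure 15 min at 22 °C before imaging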
switch fluorescence ratio: 1.02
//
sequence.input: GGCCGAGGAG
study.target: ATP;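 further: ATP exposure 15 min at 22 °C before imaging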
switch fluorescence ratio: 0.998
//
sequence.input: CGGAGCGGCG
study.target: ATP;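 further: ATP exposure 15 min at 22 °C before imaging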
switch fluorescence ratio: 1.04
//
sequence.input: TCTTGGGGG
study.target: ATP;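 further: ATP exposure 15 min at 22 °C before imaging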
switch fluorescence ratio: 1.05
//
sequence.input: GGGACGGGGT
study.target: ATP;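 further: ATP exposure 15 min at 22 °C before imaging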
switch fluorescence ratio: 0.963
//
sequence.input: GGTAATGGTG
study.target: ATP;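 further: ATP exposure 15 min at 22 °C before imaging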
switch fluorescence ratio: 1.01
//
sequence.input: TTTACTATGG
study.target: ATP;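 further: ATP exposure 15 min at 22 °C before imaging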
switch fluorescence ratio: 0.998
//
sequence.input: GCGCTAATTT
study.target: ATP;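 further: ATP exposure 15 min at 22 °C before imaging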
switch fluorescence ratio: 1.28
//
sequence.input: CCAGAACTTA
study.target: ATP;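 further: ATP exposure 15 min at 22 °C before imaging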
switch fluorescence ratio: 1.03
//
sequence.input: AGGGAAACTA
study.target: ATP;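 further: ATP exposure 15 min at 22 °C before imaging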
switch fluorescence ratio: 0.999

* * *

Test system: ATP;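 further: ATP exposure 15 min at 22 °C before imaging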
Assay: switch fluorescence ratio, 500 uM ATP over buffer (Cy3 cluster intensity, sum of 5 cycles each) (fold (ratio)); higher = stronger signal-on switching upon ATP binding; sequences stand for … in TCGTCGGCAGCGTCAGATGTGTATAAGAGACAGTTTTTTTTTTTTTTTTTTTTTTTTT…TC
Settings: aptamer strand: ATP DNA aptamer (quencher-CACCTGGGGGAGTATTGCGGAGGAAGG + anchor), 100 nM annealed; ATP concentration: 500 uM
Each item that follows carries a reported switch fluorescence ratio.
experimental.endpoint: switch fluorescence ratio

sequence.input: CGGGGGGAAA
numeric.readout: 1

sequence.input: GTAGGGGGAC
numeric.readout: 1.05

sequence.input: AGGTCCGGTG
numeric.readout: 1.03

sequence.input: TTAGAATTAA
numeric.readout: 0.972

sequence.input: CCAATGACGT
numeric.readout: 0.979

sequence.input: TGGGAAAGCA
numeric.readout: 1

sequence.input: TTGCCAAATT
numeric.readout: 1.12

sequence.input: CATGCTTGGC
numeric.readout: 1.01

sequence.input: CGAACGTCAG
numeric.readout: 1.04

sequence.input: TTGATCGCTC
numeric.readout: 1.82

sequence.input: ATTGATTTAG
numeric.readout: 0.976

sequence.input: ATACTGTCGC
numeric.readout: 1.09

sequence.input: AATTCACGTT
numeric.readout: 1.17

sequence.input: GACGGTTGCG
numeric.readout: 0.977

sequence.input: TCGAGTTGGT
numeric.readout: 1.01

sequence.input: ACCTTCGGGT
numeric.readout: 1.03

sequence.input: GAGGTTGATC
numeric.readout: 0.983

sequence.input: GAGTGTATTT
numeric.readout: 1.02

sequence.input: CTTGTAGGGA
numeric.readout: 0.996

sequence.input: TTTGTAGAGT
numeric.readout: 1.01

sequence.input: GTTGTCAGTA
numeric.readout: 0.984

sequence.input: GTCCGGCTCG
numeric.readout: 0.99

sequence.input: CACTTGGTCG
numeric.readout: 1

sequence.input: GCCCGGGCGC
numeric.readout: 1

sequence.input: GATCGGGCTA
numeric.readout: 0.966

sequence.input: GGGTGTGGGA
numeric.readout: 0.997

sequence.input: TTACTATGGC
numeric.readout: 0.966

sequence.input: GCAATTTTGT
numeric.readout: 1.03

sequence.input: GTAGAAAGGA
numeric.readout: 2.3

sequence.input: ATCCAAGATT
numeric.readout: 1

sequence.input: TAGGTTTGGT
numeric.readout: 1.02

sequence.input: AGTGATAAGT
numeric.readout: 0.969

sequence.input: TGGGGCGCAT
numeric.readout: 1.09

sequence.input: TATTGGGTGT
numeric.readout: 1.03

sequence.input: TGGGTCCAGT
numeric.readout: 0.98

sequence.input: GAGGTTTCAC
numeric.readout: 0.965

sequence.input: AAATGTTTTT
numeric.readout: 0.999

sequence.input: GATATGTGGT
numeric.readout: 0.999

sequence.input: TGTAACGGGG
numeric.readout: 1.03

sequence.input: TGGCTAAGGT
numeric.readout: 1.02

sequence.input: TAAGCCATTA
numeric.readout: 1.01

sequence.input: ATTTAGTTCT
numeric.readout: 0.981

sequence.input: CGGTGAGGAC
numeric.readout: 0.983

* * *

Test system: ATP;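 further: ATP exposure 15 min at 22 °C before imaging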
Assay: switch fluorescence ratio, 500 uM ATP over buffer (Cy3 cluster intensity, sum of 5 cycles each) (fold (ratio)); higher = stronger signal-on switching upon ATP binding; sequences stand for … in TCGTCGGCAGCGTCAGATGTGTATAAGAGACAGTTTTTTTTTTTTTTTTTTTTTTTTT…TC
Settings: aptamer strand: ATP DNA aptamer (quencher-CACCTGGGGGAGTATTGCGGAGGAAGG + anchor), 100 nM annealed; ATP concentration: 500 uM
Each item that follows carries a reported switch fluorescence ratio.

sequence.input: TGAGTATTTT
switch fluorescence ratio: 0.992
--
sequence.input: TAGCCGGCCT
switch fluorescence ratio: 1.05
--
sequence.input: CAGGTTGGGG
switch fluorescence ratio: 1.03
--
sequence.input: TAAGAAAAAA
switch fluorescence ratio: 1.02
--
sequence.input: CATATGTTAG
switch fluorescence ratio: 1
--
sequence.input: AAGTAGAGTG
switch fluorescence ratio: 0.983
--
sequence.input: TTTGCAATG
switch fluorescence ratio: 2.22
--
sequence.input: ATGCGGGGTC
switch fluorescence ratio: 1.03
--
sequence.input: GGGAAGAGGG
switch fluorescence ratio: 1
--
sequence.input: AAGAGTTGCC
switch fluorescence ratio: 1.07
--
sequence.input: AATGAGGGGG
switch fluorescence ratio: 0.978
--
sequence.input: CGGTGACGTT
switch fluorescence ratio: 1.01
--
sequence.input: GGCGTTCATG
switch fluorescence ratio: 0.997
--
sequence.input: AGAACTGTGA
switch fluorescence ratio: 0.989
--
sequence.input: ATCATGAGGT
switch fluorescence ratio: 0.978
--
sequence.input: AGCACGCTGG
switch fluorescence ratio: 1.03
--
sequence.input: GTGGGGCGGG
switch fluorescence ratio: 0.999
--
sequence.input: AGGGTGGTAG
switch fluorescence ratio: 0.978
--
sequence.input: CGGGCTCTGG
switch fluorescence ratio: 1.02
--
sequence.input: TATAATCGGG
switch fluorescence ratio: 0.989
--
sequence.input: ATGAAGGTCT
switch fluorescence ratio: 0.968
--
sequence.input: ATAATTGAGC
switch fluorescence ratio: 1.04
--
sequence.input: GGTACAGTTA
switch fluorescence ratio: 0.985
--
sequence.input: GGAGGACGGG
switch fluorescence ratio: 1
--
sequence.input: GCGGCCAGGG
switch fluorescence ratio: 1.23
--
sequence.input: GCCATGTGAA
switch fluorescence ratio: 1
--
sequence.input: CGTGACTGGT
switch fluorescence ratio: 0.968
--
sequence.input: CGGAGTGTGC
switch fluorescence ratio: 1.23
--
sequence.input: GGATGTAGAA
switch fluorescence ratio: 1.03
--
sequence.input: CGTTTAGGCA
switch fluorescence ratio: 1.02
--
sequence.input: CTGAGTTACT
switch fluorescence ratio: 1.03
--
sequence.input: GCGTTTTAAC
switch fluorescence ratio: 1.02
--
sequence.input: TTTTGAAACG
switch fluorescence ratio: 0.995
--
sequence.input: TGTTTATTCC
switch fluorescence ratio: 1.11
--
sequence.input: ATTTGCGAAT
switch fluorescence ratio: 0.966
--
sequence.input: TGGCTGGGTA
switch fluorescence ratio: 0.983
--
sequence.input: TTTGGAAAGG
switch fluorescence ratio: 0.977
--
sequence.input: GGCATCAGGC
switch fluorescence ratio: 1.03
--
sequence.input: ACTAAGAATT
switch fluorescence ratio: 1.02
--
sequence.input: AGTTAGACAG
switch fluorescence ratio: 0.974
--
sequence.input: ACTGGGGGCT
switch fluorescence ratio: 0.975
--
sequence.input: TGCTGAAATG
switch fluorescence ratio: 1.03
--
sequence.input: GCGCTTTTCT
switch fluorescence ratio: 0.978
